The origin of these recorded values is patent US9403808B2.

Target: human CB2 receptors (Homo sapiens (Human))
Sequence (P34972 whole entry): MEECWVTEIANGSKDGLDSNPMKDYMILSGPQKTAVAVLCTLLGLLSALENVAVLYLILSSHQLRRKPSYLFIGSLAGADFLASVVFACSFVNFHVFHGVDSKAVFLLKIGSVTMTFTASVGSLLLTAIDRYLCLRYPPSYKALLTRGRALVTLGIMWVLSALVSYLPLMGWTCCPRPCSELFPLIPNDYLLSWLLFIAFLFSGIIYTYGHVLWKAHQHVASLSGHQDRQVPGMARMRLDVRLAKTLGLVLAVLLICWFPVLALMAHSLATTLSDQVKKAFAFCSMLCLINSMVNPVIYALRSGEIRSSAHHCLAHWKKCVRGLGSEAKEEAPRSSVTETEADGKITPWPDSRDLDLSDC
Assay: functional cAMP assay, CB2
Format: cell-based
Settings: functional cAMP assay, CHO cells expressing human CB2; read-out: human CB2 EC50
pEC50: −log10 of the molar value.
measured-property: pEC50

test-smiles | data-value
O=C(NC1(CO)CCC1)c1cnc(C2CC2)c(OCC2CC2)n1 | 6.91
CC(C)(CC(N)=O)NC(=O)c1cnc(N2CC(F)(F)C2)c(OCC2CC2)n1 | 7.93
NC(=O)[C@@H](NC(=O)c1cnc(C2CC2)c(OCC2CC2)n1)c1ccccc1 | 6.85
CC(C)[C@](C)(CO)NC(=O)c1cnc(C2CC2)c(OCC2CC2)n1 | 6.86
CNC(=O)[C@H](CC(C)C)NC(=O)c1cnc(N2CC(F)(F)C2)c(OCC2CC2)n1 | 7.93
Cc1nc([C@H](CC2CC2)NC(=O)c2cnc(N3CC(F)(F)C3)c(OCC3CC3)n2)no1 | 7.55
CC(C)(C)[C@H](NC(=O)c1cnc(C2CC2)c(OCC2CC2)n1)C(=O)O | 6.35
NC(=O)[C@@H](NC(=O)c1cnc(N2CC(F)(F)C2)c(OCC2CC2)n1)c1ccc(F)cc1 | 7.51
NC(=O)C1(NC(=O)c2cnc(N3CC(F)(F)C3)c(OCC3CC3)n2)CCCCC1 | 7.15
CC(C)(CC(N)=O)NC(=O)c1cnc(C2CC2)c(OCC2CC2)n1 | 7.36
COC(=O)C1(NC(=O)c2cnc(N3CC(F)(F)C3)c(OCC3CC3)n2)CCC1 | 7.69
CC(C)(CCO)NC(=O)c1cnc(C2CC2)c(OCC2CC2)n1 | 6.59
Cc1nc(C2(NC(=O)c3cnc(C4CC4)c(-c4cccc(Cl)c4)n3)CCC2)no1 | 6.81
Cc1nc(C2(NC(=O)c3cnc(C4CC4)c(OCC4CC4)n3)CCC2)no1 | 7.07
CN(C)C(=O)[C@H](CC1CC1)NC(=O)c1cnc(C2CC2)c(OCC2CC2)n1 | 7.84
NC(=O)[C@H](CC1CC1)NC(=O)c1cnc(N2CC(F)(F)C2)c(OCC2CC2)n1 | 7.96
CCC(CC)(NC(=O)c1cnc(N2CC(F)(F)C2)c(OCC2CC2)n1)C(=O)NC | 8.13
